Data credit: the supplement of paper PMC10567573

B1: GLTSCR2 (parent)
chain: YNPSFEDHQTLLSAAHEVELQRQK

Variants of: B1
Test: protein stability index of a GFP-peptide fusion (GPS, HEK-293T) (PSI 1-6); higher = more stable;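 further: lentivirally expressed fusions sorted by FACS into six bins by GFP to DsRed ratio, PSI derived from sequencing read proportions per bin multiplied by bin number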
Settings: c terminus: a fixed tail appended
Metric: protein stability index
Answers are plain numbers.

// for each variant in input: emit protein stability index
1. A14F
2. V18T
3. A15W
4. N2W

2.53
4.24
2.3
4.2

Below are 6 variants. Give each one its protein stability index.
1. L11V
2. A15M
3. Q21C
4. F5M
5. L11P
6. Q21P

[3.98, 2.93, 3.61, 3.5, 4.92, 4.07]

# batch: return protein stability index for each of the 3 variants below
1. V18P
2. L20D
3. H8N

1. 4.41
2. 4.29
3. 4.29

Give protein stability index for all variants that follow.
1. H8I
2. L20Y

1. 2.53
2. 3.74
